These entries and their values trace back to the supplement of paper PMC6555819.

Test system: RARa homodimer (NR concentration 270 nM)
method_summary: PBM binding z-score (relative to random genomic background probes); higher = stronger binding; sequences stand for … in GC…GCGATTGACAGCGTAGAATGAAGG
endpoint_label: PBM binding z-score

Please review the following examples before continuing.
INSERT INTO results (biosequence, tested_on, measured_result) VALUES
  ('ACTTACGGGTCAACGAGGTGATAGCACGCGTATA', 'RARa homodimer (NR concentration 270 nM)', 1.19),
  ('CGTCCAAGGTCAAAGGTCAGTGAAGAGATGACGG', 'RARa homodimer (NR concentration 270 nM)', 2.78),
  ('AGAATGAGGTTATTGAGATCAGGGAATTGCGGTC', 'RARa homodimer (NR concentration 270 nM)', 0.342),
  ('AGAACGAGGGCAATGTGTTGATAGCACGGGTGGC', 'RARa homodimer (NR concentration 270 nM)', -0.364),
  ('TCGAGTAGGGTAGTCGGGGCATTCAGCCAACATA', 'RARa homodimer (NR concentration 270 nM)', -0.527);

Now take the following sequence into account.
Challenge: So what does the record say about PBM binding z-score for `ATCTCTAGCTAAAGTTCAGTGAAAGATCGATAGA` ?
Response given: 1.01
